- experimental-protocol: Aqueous solubility of the compound at pH 6.8 incubated for 24 hrs under shaking condition by LC-UV analysis
- Type: physicochemical
- test-settings: aqueous medium
Please respond with reported solubility thermodynamic at 24 h for every item in the list.
Numbers only, in µg/mL.

O=C(Cn1ccccc1=O)Nc1cc2cccccc-2c1 : 2
O=C(NCCc1cnc[nH]1)C1=CC2C(C(=O)c3ccccc3)=CN=C2C=C1 (centres undefined) : 66
CN1CCN(C(=O)c2ccc3c(c2)c(C(=O)c2ccccc2)cn3C)CC1 : 68
O=C(Nc1cc2cccccc-2c1)c1cccnc1 : 2
Cn1c(NC(=O)Cn2ccccc2=O)cc2ccccc21 : 3
O=C(Nc1ccc2ccccc2c1)c1cccnc1 : 4
CN1CCN(C(=O)c2ccc3[nH]cc(C(=O)c4ccccc4)c3c2)CC1 : 69
O=C(NCCc1c[nH]c2ccccc12)c1ccc2[nH]cc(C(=O)c3ccccc3)c2c1 : 1

Provide reported solubility thermodynamic at 24 h for each item, in the same order as listed.
1. O=C(NCCO)c1ccc2ccc(C(=O)c3ccccc3)c-2cc1
2. CN(C)C(=O)Cc1ccc2ccccc2c1
3. O=C(NCCO)c1ccc2[nH]cc(C(=O)c3ccccc3)c2c1
4. Cn1cc(C(=O)c2ccccc2)c2cc(C(=O)NCCO)ccc21

4
40
15
45

###

- experimental-protocol: Octanol-water partition coefficient, logD of the compound at pH 11 by HPLC analysis
- Format: physicochemical
experimental-endpoint: logD
One number for each entry.

Use the examples below as a reference point.
O=C(NCCO)c1ccc2[nH]cc(C(=O)c3ccccc3)c2c1 : 1.3
COC(=O)c1ccc2c(C(=O)N(C)C)cn(C)c2c1 : 1.9

Please supply logD for each of the following items, keeping them in order.
1. COC(=O)c1ccc2c(C(=O)Nc3ccccc3)cn(C)c2c1
2. Cn1c(NC(=O)Cn2ccccc2=O)cc2ccccc21
3. O=C(Cn1ccccc1=O)Nc1cc2ccccc2[nH]1

1. 3.4
2. 1.5
3. 1

###

- experimental-protocol: Photostability of the compound at pH 8.7 assessed as compound degradation administered as solution irradiated with sun light and measured after 7 days by HPLC analysis
- Format: physicochemical
- test-settings: time 7 day, read-out: Drug degradation
experimental-endpoint: degraded at 168 h (%)
Numbers only, in %.

// returns reported degraded at 168 h for input c1cc2ccc(CN3CCCCC3)ccc-2c1 3.5

###

- experimental-protocol: Photostability of the compound at pH 7.2 assessed as compound degradation administered as solution irradiated with sun light and measured after 7 days by HPLC analysis
- Type: physicochemical
- test-settings: time 7 day, read-out: Drug degradation
experimental-endpoint: degraded at 168 h

# input compound: CN1CCN(C(=O)c2ccc3ccc(C(=O)c4ccccc4)c-3cc2)CC1 ; wanted: its degraded at 168 h < 0.5%

###

- experimental-protocol: Aqueous solubility of the compound at pH 4.5 incubated for 24 hrs under shaking condition by LC-UV analysis
- Assay type: physicochemical
- test-settings: aqueous medium
experimental-endpoint: solubility thermodynamic at 24 h (µg/mL)
Numbers only, in µg/mL.

O=C(NCCc1cnc[nH]1)C1=CC2C(C(=O)c3ccccc3)=CN=C2C=C1 (configuration not stated) : 78
Cn1cc(C(=O)c2ccccc2)c2cc(C(=O)NCCO)ccc21 : 66
O=C(NCc1cccnc1)c1ccc2[nH]cc(C(=O)c3ccccc3)c2c1 : 1
O=C(Cn1ccccc1=O)Nc1cc2cccccc-2c1 : 2
O=C(Nc1ccc2ccccc2c1)c1cccnc1 : 6

Now look at this one.
What value of solubility thermodynamic at 24 h has been reported for the following compound? COC(=O)c1ccc2ccc(C(=O)N(C)C)c-2cc1 50

###

Each entry below carries its measured IC50, system: Cytochrome P450 3A4 (Homo sapiens, UniProt P08684).
Sequence (P08684 whole entry): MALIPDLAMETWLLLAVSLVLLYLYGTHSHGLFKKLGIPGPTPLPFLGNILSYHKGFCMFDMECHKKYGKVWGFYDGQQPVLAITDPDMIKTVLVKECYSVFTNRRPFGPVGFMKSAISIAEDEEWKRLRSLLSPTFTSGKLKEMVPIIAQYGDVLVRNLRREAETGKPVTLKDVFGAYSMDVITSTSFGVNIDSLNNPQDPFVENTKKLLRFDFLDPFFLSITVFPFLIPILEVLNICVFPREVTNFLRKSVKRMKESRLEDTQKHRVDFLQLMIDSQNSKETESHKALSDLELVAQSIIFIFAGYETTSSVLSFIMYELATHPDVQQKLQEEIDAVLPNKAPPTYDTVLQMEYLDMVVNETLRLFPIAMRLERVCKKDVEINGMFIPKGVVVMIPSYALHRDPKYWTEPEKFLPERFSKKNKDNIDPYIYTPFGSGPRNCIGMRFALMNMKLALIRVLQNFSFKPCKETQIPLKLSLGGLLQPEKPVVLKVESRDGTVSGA

Record excerpt, results attached:
c1cc2ccc(CN3CCCCC3)ccc-2c1 : > 50 µM
CN(C)C(=O)c1ccc2cccccc1-2 : > 50 µM

Could you tell me IC50 for each of these molecules? They are listed below.
1. NC(=O)C1CCN(C(=O)c2ccc3cccccc2-3)CC1
2. O=C(O)c1ccc2ccc(C(=O)c3ccc(C(F)(F)F)cc3)c-2cc1

1. > 50 µM
2. > 50 µM

###

So I've got a bunch of molecules here, and I need their solubility thermodynamic at 24 h values.
- experimental-protocol: Aqueous solubility of the compound at pH 4.5 incubated for 24 hrs under shaking condition by LC-UV analysis
- Format: physicochemical
- test-settings: aqueous medium
Give bare numbers, in µg/mL.

O=C(NCCO)c1ccc2ccc(C(=O)c3ccccc3)c-2cc1 : 6
Cn1cc(C(=O)N2CCC(C(N)=O)CC2)c2ccccc21 : 44
CN(C)C(=O)Cc1ccc2ccccc2c1 : 39

Given the molecule Cn1cc(C(=O)c2ccccc2)c2cc(C(=O)NCCc3cnc[nH]3)ccc21 , what is its reported solubility thermodynamic at 24 h? 107

###

Kindly supply the reported logD values for the records listed here.
- experimental-protocol: Octanol-water partition coefficient, logD of the compound at pH 2 by HPLC analysis
- Type: physicochemical
- test-settings: read-out: logD
Numbers only.

c1cc2ccc(CN3CCCCC3)ccc-2c1 : 0.8
O=C(NCCc1cnc[nH]1)c1ccc2ccc(C(=O)c3ccccc3)c-2cc1 : 1.3

Consider the following items and state reported logD for each.
1. CN(C)C(=O)Cc1ccc2cccc-2cc1
2. O=C(NCCc1cnc[nH]1)C1=CC2C(C(=O)c3ccccc3)=CN=C2C=C1 (configuration not stated)
3. COC(=O)c1ccc2c(ccn2C(=O)c2ccccc2)c1
4. CN1CCN(C(=O)c2ccc3[nH]cc(C(=O)c4ccccc4)c3c2)CC1
5. Cn1cc(C(=O)c2ccccc2)c2cc(C(=O)NCCc3c[nH]c4ccccc34)ccc21
6. COC(=O)c1ccc2ccc(C(=O)c3ccccc3)c-2cc1
7. CN1CCN(C(=O)c2ccc3c(c2)c(C(=O)c2ccccc2)cn3C)CC1

1. 2.5
2. 0.7
3. 4.5
4. 0.5
5. 3.6
6. 4.8
7. 0.7

Respectfully, I request logD for each entry included below.
1. CN(C)C(=O)Cc1ccc2ccn(C)c2c1
2. O=C(NCc1cccnc1)c1ccc2[nH]cc(C(=O)c3ccccc3)c2c1

1.9
0.8

Query: logD; subject: Cn1cc(C(=O)c2ccccc2)c2cc(C(=O)NCCc3cnc[nH]3)ccc21 0.9

###

- experimental-protocol: Photostability of the compound at pH 4.1 assessed as compound degradation administered as solution irradiated with sun light and measured after 7 days by HPLC analysis
- Assay type: physicochemical
- test-settings: time 7 day, read-out: Drug degradation
experimental-endpoint: degraded at 168 h

Returns the measured degraded at 168 h for the input molecule. Input: O=C(O)c1ccc2ccc(C(=O)c3ccccc3)c-2cc1 < 0.5%

###

- experimental-protocol: Permeability of the compound at pH 7.4 by PAMPA assay
- Type: ADME
- test-settings: read-out: permeability
Category scheme (Papp): low band (below 0.4 ×10⁻⁶ cm/s), middle band (0.4 ×10⁻⁶ cm/s to below 2 ×10⁻⁶ cm/s), high band (2 ×10⁻⁶ cm/s or more)

O=C(NCCO)c1ccc2[nH]cc(C(=O)c3ccccc3)c2c1 : low band
COC(=O)c1ccc2c(C(=O)Nc3ccccc3)cn(C)c2c1 : high band
COC(=O)c1ccc2c(c1)c(C(=O)c1ccccc1)cn2C(=O)c1ccccc1 : middle band

Where would NC(=O)C1CCN(C(=O)c2c[nH]c3ccccc23)CC1 land among the classes by reported Papp? low band

Sort CN1CCN(C(=O)c2ccc3c(c2)c(C(=O)c2ccccc2)cn3C)CC1 into one of the categories. middle band

Form field 'band' for CN1CCN(C(=O)c2ccc3ccc(C(=O)c4ccccc4)c-3cc2)CC1 high band

Could you place O=C(NCCc1cnc[nH]1)c1ccc2ccc(C(=O)c3ccccc3)c-2cc1 in its proper category? Many thanks. low band

Assign a category based on measured Papp for COC(=O)c1ccc2ccc(C(=O)N(C)C)c-2cc1 and give only the class name. high band

Assign a category based on measured Papp for COC(=O)c1ccc2[nH]cc(C(=O)c3ccccc3)c2c1 and give only the class name. high band

Quick check: band for O=C(NCc1cccnc1)c1ccc2[nH]cc(C(=O)c3ccccc3)c2c1 low band

###

- experimental-protocol: Hydrolytic stability of the compound in aqueous HCl assessed as compound decomposition measured after 3 days by HPLC analysis
- Format: physicochemical
- test-settings: time 3 day, read-out: Drug degradation
For each entry below, report its degraded at 72 h value.
Give bare numbers, in %.

O=C(Cn1ccccc1=O)Nc1cc2cccccc-2c1 : 3.5
CN(C)C(=O)Cc1ccc2cccc-2cc1 : 2

Next up:
// returns reported degraded at 72 h for input O=C(O)c1ccc2cccc-2cc1 1.5

###

- experimental-protocol: Aqueous solubility of the compound at pH 6.8 incubated for 24 hrs under shaking condition by LC-UV analysis
- Assay type: physicochemical
- test-settings: aqueous medium
experimental-endpoint: solubility thermodynamic at 24 h

O=C(NCc1cccnc1)c1ccc2ccc(C(=O)c3ccccc3)c-2cc1 : < 1 µg/mL
COC(=O)c1ccc2c(ccn2C(=O)c2ccccc2)c1 : < 1 µg/mL
Cn1cc(C(=O)N2CCC(C(N)=O)CC2)c2ccccc21 : > 64 µg/mL
c1ccc2cc(CN3CCCCC3)ccc2c1 : 27 µg/mL
COC(=O)c1ccc2[nH]cc(C(=O)c3ccccc3)c2c1 : < 1 µg/mL
COC(=O)c1ccc2c(C(=O)Nc3ccccc3)cn(C)c2c1 : < 1 µg/mL

Below are some compounds; for each one, tell me its solubility thermodynamic at 24 h.
1. COC(=O)c1ccc2c(C(=O)N(C)C)cn(C)c2c1
2. COC(=O)c1ccc2ccc(C(=O)c3ccccc3)c-2cc1
3. O=C(NCCc1c[nH]c2ccccc12)c1ccc2ccc(C(=O)c3ccccc3)c-2cc1
4. CN(C)C(=O)Cc1ccc2ccn(C)c2c1
5. CN(C)C(=O)c1ccc2cccccc1-2
6. CN1CCN(C(=O)c2ccc3ccc(C(=O)c4ccccc4)c-3cc2)CC1

49 µg/mL
< 1 µg/mL
< 1 µg/mL
> 53 µg/mL
> 40 µg/mL
> 73 µg/mL
